Molecular target: T1, EsCas13d, nuclease-dead (Eubacterium siraeum, UniProt B0MS50, R295A;H300A;R849A;H854A)
T1 sequence: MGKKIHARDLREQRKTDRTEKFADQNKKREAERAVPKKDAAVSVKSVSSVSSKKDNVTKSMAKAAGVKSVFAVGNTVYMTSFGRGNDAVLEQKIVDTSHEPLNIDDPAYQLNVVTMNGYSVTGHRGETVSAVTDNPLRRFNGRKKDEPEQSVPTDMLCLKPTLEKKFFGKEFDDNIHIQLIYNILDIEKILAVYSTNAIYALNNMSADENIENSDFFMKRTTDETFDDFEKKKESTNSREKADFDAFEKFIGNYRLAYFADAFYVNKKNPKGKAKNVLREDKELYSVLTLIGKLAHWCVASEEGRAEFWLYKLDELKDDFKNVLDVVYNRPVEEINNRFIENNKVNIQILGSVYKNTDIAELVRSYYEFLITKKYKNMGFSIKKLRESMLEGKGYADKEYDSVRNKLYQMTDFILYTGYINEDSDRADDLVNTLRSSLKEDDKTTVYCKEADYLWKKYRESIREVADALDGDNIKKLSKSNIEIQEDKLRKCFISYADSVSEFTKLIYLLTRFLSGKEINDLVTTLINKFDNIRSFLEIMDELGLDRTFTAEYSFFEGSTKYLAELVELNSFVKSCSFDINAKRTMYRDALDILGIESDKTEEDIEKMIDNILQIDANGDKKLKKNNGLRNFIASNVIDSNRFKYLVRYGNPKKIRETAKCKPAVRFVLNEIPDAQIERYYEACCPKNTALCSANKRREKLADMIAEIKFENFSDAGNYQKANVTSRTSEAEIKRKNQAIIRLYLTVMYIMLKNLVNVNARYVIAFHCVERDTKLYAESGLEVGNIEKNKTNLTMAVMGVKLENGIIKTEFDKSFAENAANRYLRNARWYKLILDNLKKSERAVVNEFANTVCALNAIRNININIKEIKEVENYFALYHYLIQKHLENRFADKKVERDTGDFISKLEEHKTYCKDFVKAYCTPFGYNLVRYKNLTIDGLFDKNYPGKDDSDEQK
Assay: crRNA (strand 1, pre-loaded); Mg2+; 40 mM Tris-HCl pH 7.5, 150 mM NaCl, 6 mM MgCl2, 1 mM DTT, 0.1% Tween-20, 0.2 mg/ml BSA; 25 C; 10 min per concentration, then washed
Conditions: tags: His6-TwinStrep-SUMO cleaved; N-terminal SNAP kept (SNAP-Surface 488); label: 3' end held by stalled T7 RNA polymerase
MEASURE: pKd
Please express pKd as -log10 of the molar concentration.

Illustrative cases are given below, each with its answer.
BINDER: target 2 MT 5'PFS AAA 3'PFS AUA (mixed) RNA 1: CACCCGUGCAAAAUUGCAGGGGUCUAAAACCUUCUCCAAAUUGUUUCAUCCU RNA 2: GGGAAUGGAUCCACAUCUACGAAUUCAAAAGGAUGAAACAAUUUGGAGAAGAUAAGAUCGGAAGAGCACACGU
pKd: 8.36
--
BINDER: target 1 C2G,G17U (mixed) RNA 1: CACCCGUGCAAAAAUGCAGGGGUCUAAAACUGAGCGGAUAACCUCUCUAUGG RNA 2: GGGAAUGGAUCCACAUCUACGAAUUCGUACCAUAUAGAGGUUAUCCGCUGACCGAGAUCGGAAGAGCACACGU
pKd: 7.84
--
BINDER: target 2 MT 5'PFS GAU 3'PFS UUU (mixed) RNA 1: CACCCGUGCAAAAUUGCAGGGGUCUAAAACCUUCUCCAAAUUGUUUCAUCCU RNA 2: GGGAAUGGAUCCACAUCUACGAAUUCGAUAGGAUGAAACAAUUUGGAGAAGUUUAGAUCGGAAGAGCACACGU
pKd: 7.33

Next item in the queue.
Input: # return recorded pKd for entry target 1 A9G,G15U (mixed) RNA 1: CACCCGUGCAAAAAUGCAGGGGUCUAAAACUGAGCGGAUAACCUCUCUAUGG RNA 2: GGGAAUGGAUCCACAUCUACGAAUUCGUACCAUAGAUAGGUUGUCCGCUCACCGAGAUCGGAAGAGCACACGU
Output: 7.76
